Test system: Rattus norvegicus
Assay: Analgesic activity in Wistar albino rat […] assessed as reaction time for tail withdrawal at 100 mg/kg, po after 300 mins by tail flick method
Type: functional
// NB: equality with 8 s counts as Not fulfilled; only Activity strictly below is Fulfilled

- molecule: "Cc1ccc2c(Cc3nn4cc(-c5ccc(Br)cc5)nc4s3)coc2c1"
  target.or.test.system: "Rattus norvegicus"
  label: "Fulfilled"

Exercise: Say whether its Activity is strictly beneath 8 s. Entry: Cc1ccc2c(Cc3nn4c(CO)c(-c5ccc(Br)cc5)nc4s3)coc2c1
Key: Fulfilled

Exercise: Does Cc1ccc2c(Cc3nn4c(/C=N/O)c(-c5ccc(Cl)cc5)nc4s3)coc2c1 have Activity strictly under 8 s?
Key: Fulfilled

Exercise: Lab note: Activity threshold 8 s. Does this molecule come in strictly under it? Cc1ccc2c(Cc3nn4c(C=O)c(-c5ccc(Cl)cc5)nc4s3)coc2c1
Key: Fulfilled

Exercise: I wonder whether Cc1ccc2c(Cc3nn4cc(-c5ccc([N+](=O)[O-])cc5)nc4s3)coc2c1 has Activity below 8 s. Can you tell?
Key: Not fulfilled

Exercise: Please state whether Activity is below 8 s for CS(=O)(=O)Nc1ccc([N+](=O)[O-])cc1Oc1ccccc1 [NIMESULIDE]
Key: Not fulfilled

Exercise: Here's an entry: Cc1ccc2c(Cc3nn4c(C#N)c(-c5ccc(Cl)cc5)nc4s3)coc2c1 . Is its Activity below 8 s?
Key: Fulfilled

Exercise: Field: below-cutoff. Rule: recorded Activity strictly less than 8 s. Subject: Cc1ccc2c(Cc3nn4c(CN5CCOCC5)c(-c5ccc(Br)cc5)nc4s3)coc2c1
Key: Fulfilled

Exercise: Determine whether this molecule shows Activity lower than 8 s (ties excluded): Cc1ccc2c(Cc3nn4c(CN5CCOCC5)c(-c5ccc(Cl)cc5)nc4s3)coc2c1
Key: Fulfilled

Exercise: Check if Activity falls below 8 s for Cc1ccc2c(Cc3nn4c(CO)c(-c5ccc(Cl)cc5)nc4s3)coc2c1 .
Key: Fulfilled

Exercise: Does Cc1ccc2c(Cc3nn4c(C=O)c(-c5ccc(Br)cc5)nc4s3)coc2c1 have Activity strictly under 8 s?
Key: Fulfilled
